Measured Fraction inter-pulse duration within bursts of individual entries
System: individual single vagal fibers (mesenteric nerve bundle of jejunal segment)
measurement-protocol: Ex vivo vagal nerve fiber recording, test substance in lumen of jejunal segment, post hoc single unit burst analysis
Parameters: species or system BALB/c mice
condition-info: fractional change (treatment−control)/control; same luminal concentrations
parameter-measured: Fraction inter-pulse duration within bursts

compound: CC(C)[C@@H](CC[C@@H](C)[C@H]1CC[C@H]2[C@@H]3[C@H](O)C[C@H]4C[C@@H](NCCCNCCCCN)CC[C@]4(C)[C@H]3CC[C@]12C)OS(=O)(=O)O
measured-value: 0.1394

compound: CC(NC(C)(C)C)C(=O)c1cccc(Cl)c1 (stereo not shown)
measured-value: 0.01576

compound: CNCCC(Oc1ccc(C(F)(F)F)cc1)c1ccccc1 (stereo not shown)
measured-value: 0.2705

compound: CN[C@H]1CC[C@@H](c2ccc(Cl)c(Cl)c2)c2ccccc21
measured-value: 0.1936

----------
Test system: individual single vagal fibers (mesenteric nerve bundle of jejunal segment)
measurement-protocol: Ex vivo vagal nerve fiber recording, test substance in lumen of jejunal segment, post hoc single unit burst analysis
Parameters: species or system BALB/c mice
condition-info: fractional change (treatment−control)/control; same luminal concentrations
Protocol: Adult BALB/c mice were killed by cervical dislocation. […] The nerve bundle was gently sucked onto a glass pipette attached to a patch-clamp electrode holder (CV-7B; Molecular Devices, Sunnyvale, Calif.), and extracellular nerve recordings were performed using a Multi-Clamp 700B amplifier and Digidata 1440A signal converter (Molecular Devices). […] Constitutive multiunit electrical activity was always recorded from the mesenteric nerve bundle even when the lumen was perfused with only Krebs buffer. […]

molecule: CN[C@H]1CC[C@@H](c2ccc(Cl)c(Cl)c2)c2ccccc21
Fraction inter-burst duration: −0.1554

molecule: CC(NC(C)(C)C)C(=O)c1cccc(Cl)c1 (stereo not shown)
Fraction inter-burst duration: 1.152

molecule: CNCCC(Oc1ccc(C(F)(F)F)cc1)c1ccccc1 (stereo not shown)
Fraction inter-burst duration: −0.1795

molecule: CC(C)[C@@H](CC[C@@H](C)[C@H]1CC[C@H]2[C@@H]3[C@H](O)C[C@H]4C[C@@H](NCCCNCCCCN)CC[C@]4(C)[C@H]3CC[C@]12C)OS(=O)(=O)O
Fraction inter-burst duration: −0.2957
